- SYSTEM TESTED: hnRNPA2 1-189 (tandem RRMs) (UniProt P22626-2 1-189)
- Sequence (P22626 other isoform, or with tags, fused parts or gaps): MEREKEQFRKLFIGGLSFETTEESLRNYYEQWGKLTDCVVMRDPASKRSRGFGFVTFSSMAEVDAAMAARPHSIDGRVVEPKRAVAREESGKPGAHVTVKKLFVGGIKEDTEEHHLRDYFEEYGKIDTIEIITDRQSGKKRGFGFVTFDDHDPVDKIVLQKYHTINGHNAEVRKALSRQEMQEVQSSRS
- MEASUREMENT DESCRIPTION: ITC; 4600 uM protein, 115 uM RNA; N 0.785; ITC: 20 mM NaPi pH 6.75, 150 mM NaCl, 25 C (also 20 mM KPi pH 6.75; 20 mM MES pH 6.7, 150 mM NaCl, 10 mM CaCl2); protein in syringe, RNA in cell
- MEASUREMENT CONDITIONS: protein: recombinant; tags: His tag removed by TEV; single strand
MEASURED PROPERTY: pKd
Give only the number. pKd is defined as minus log10 of concentration in molar units.

The recorded pKd for entry GCCAAGGAGCC (ssRNA) [rA2RE11] equals 4.70
